src = ChEMBL document CHEMBL5385875

Test system: HepG2
METHOD_SUMMARY: Cytotoxicity against human HepG2 cells assessed as reduction in cell viability incubated for 48 hrs by MTT assay
Type: functional, cell-based
TEST_CONTEXT: HepG2, 48 h
MEASURE: IC50

For each entry beneath this line, provide reported IC50.
1. O=C1/C(=C/c2ccc(C(F)(F)F)cc2)CCC/C1=C\c1ccc(C(F)(F)F)cc1
2. O=C1/C(=C/c2ccccc2C(F)(F)F)CCC/C1=C\c1ccccc1C(F)(F)F
3. COc1cc(/C=C/C(=O)CC(=O)/C=C/c2ccc(O)c(OC)c2)ccc1O

### Response
> 100 µM
> 100 µM
22.8 µM
